# test_system: T1, MAGE-A3 peptide 111-125 (unmodified) (UniProt P43357)
# T1 chain: RKVAELVHFLLLKYR
# protocol_summary: ITC; 25 C, DPBS with 0.45% glucose, 5 mM MgCl2; dH -24 kcal/mol
# test_conditions: protein: synthetic; tags: none; peptide (synthetic, inferred)
pKd: −log10 of the molar value.
quantity_measured: pKd

> print(dat)
                                     binder  quantity.measured  endpoint.value
1  Ap52 (ssDNA) DNA: ATCCAGAGTGACGCAGCAAGCACTCAATATTCCCTGGACACGGTGGCTTAGT                pKd            7.24
